# Condition Description: in vivo, ip
Result Type: Tox. i.p.

CC(=O)O[C@H]1C(=O)[C@@]2(C)[C@H]([C@H](OC(=O)c3ccccc3)[C@]3(O)C[C@H](OC(=O)[C@H](O)[C@@H](NC(=O)c4ccccc4)c4ccccc4)C(C)=C1C3(C)C)[C@]1(OC(C)=O)CO[C@@H]1C[C@@H]2O [Taxol, reference compound]; ≈158 i.p. mg/kg
O=C(Nc1ccncc1)C(=O)c1cn(Cc2ccc(F)cc2)c2ccccc12 [Example 1]; ≈158 i.p. mg/kg

###

# Condition Description: i.p. (Table 5)
Result Type: Tox. i.p.

C/C=C/[C@@H]1O[C@H]([C@H](O)/C=C/C=C(\C)C[C@@H](C)/C=C(C)\C=C\[C@H]2CC=CC(=O)O2)C[C@@H](O)[C@@H]1C [Ratjadone, reference compound]; ~16.0 mg/kg

###

# System: LNCAP cell line
# Measurement Description: XTT proliferation test/cytotoxicity test, LNCAP cell line
# Type: cell-based
# Condition Description: Homo sapiens; LNCaP tumor cells; read-out: XTT EC50 LNCaP
Result Type: EC50

O=C(Nc1ccc(F)cc1)C(=O)c1cn(Cc2ccc(F)cc2)c2ccccc12; > 31.6 µg/mL
O=C(Nc1ccncc1)C(=O)c1cn(Cc2ccc(F)cc2)c2ccccc12; > 31.6 µg/mL
O=C(Nc1ccc(F)cc1)C(=O)c1cn(Cc2cccnc2)c2ccccc12; > 31.6 µg/mL
O=C1c2c(O)ccc(O)c2C(=O)c2c(NCCNCCO)ccc(NCCNCCO)c21 [Mitoxantrone, reference compound]; ~0.017 µg/mL

###

# System: LNCAP cell line
# Measurement Description: XTT proliferation test/cytotoxicity test, LNCAP cell line
# Assay type: cell-based
# Condition Description: Homo sapiens; LNCaP tumor cells; read-out: XTT EC50 LNCaP
Result Type: EC50 (µg/mL)

O=C(Nc1ccc(F)cc1)C(=O)c1cn(Cc2ccccn2)c2ccccc12 [Example 11]; 17.5
COc1cccc2c1C(=O)c1c(O)c3c(c(O)c1C2=O)C[C@@](O)(C(=O)CO)C[C@@H]3O[C@H]1C[C@H](N)[C@H](O)[C@H](C)O1 [Adriamycin, reference compound]; 0.17
O=C(Nc1cccnc1)C(=O)c1cn(Cc2ccc(F)cc2)c2ccccc12 [Example 3]; 9.25
O=C(Nc1ccncc1)C(=O)c1cn(Cc2ccccn2)c2ccccc12 [Example 16]; 17.5
O=C(Nc1ccncc1)C(=O)c1cn(Cc2ccccc2Cl)c2ccccc12 [Example 14]; 17.5

###

Items are presented alongside their recorded Tox. i.v..
# Condition Description: i.v. (Table 5)
Result Type: Tox. i.v.

O=C1c2c(O)ccc(O)c2C(=O)c2c(NCCNCCO)ccc(NCCNCCO)c21 [Mitoxantrone, reference compound]; 16 i.v. mg/kg
C/C=C/[C@@H]1O[C@H]([C@H](O)/C=C/C=C(\C)C[C@@H](C)/C=C(C)\C=C\[C@H]2CC=CC(=O)O2)C[C@@H](O)[C@@H]1C [Ratjadone, reference compound]; ~30.0 i.v. mg/kg

###

# Measurement Description: in vivo
# Condition Description: LD50 1 × per os
Result Type: LD50 (mg/kg)

O=C(Nc1ccncc1)C(=O)c1cn(Cc2ccc(Cl)cc2)c2ccccc12; 1000

Origin of values: patent US7579365B2
